The measurements presented in this section are drawn from patent US20240325555A1.

Listed next: entries and their corresponding EC50.
Molecular target: cynomolgus LIV-1 (cynomolgus, UniProt A0A2K5WH46 30-741)
Sequence (A0A2K5WH46 entry or part of it): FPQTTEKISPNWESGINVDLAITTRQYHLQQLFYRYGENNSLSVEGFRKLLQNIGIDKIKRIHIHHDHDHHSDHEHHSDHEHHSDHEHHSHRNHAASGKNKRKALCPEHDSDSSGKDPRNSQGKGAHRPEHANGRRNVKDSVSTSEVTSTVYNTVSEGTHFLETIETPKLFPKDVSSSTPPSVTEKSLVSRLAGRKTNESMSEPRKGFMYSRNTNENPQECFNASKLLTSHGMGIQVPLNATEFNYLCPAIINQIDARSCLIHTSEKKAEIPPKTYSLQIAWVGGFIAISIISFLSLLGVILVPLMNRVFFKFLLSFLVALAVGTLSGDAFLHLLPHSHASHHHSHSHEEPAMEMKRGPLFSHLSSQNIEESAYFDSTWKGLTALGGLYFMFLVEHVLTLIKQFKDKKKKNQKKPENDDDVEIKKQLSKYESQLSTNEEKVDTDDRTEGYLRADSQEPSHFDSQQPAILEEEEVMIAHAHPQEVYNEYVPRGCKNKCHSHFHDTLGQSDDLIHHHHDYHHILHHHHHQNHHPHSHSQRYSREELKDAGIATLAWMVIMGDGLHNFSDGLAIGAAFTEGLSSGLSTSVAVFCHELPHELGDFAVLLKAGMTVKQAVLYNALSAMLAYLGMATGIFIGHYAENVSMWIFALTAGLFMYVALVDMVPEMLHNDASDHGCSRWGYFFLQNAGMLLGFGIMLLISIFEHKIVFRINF
Test: FACS, cyno LIV-1 cells

binder: 290F10G10.p1.Z9 (antibody, V domains shown) VH: EVQLVQSGAEVKKPGASVKVSCKASGYTFTSYWIHWVRQAPGQGLEWIGTIYPGDADTRSTQKFKDKATVTADKSTSTVYMELSSLRSEDTAVYYCARSLIHDDYDKYYFDYWGQGTTVTVSS VL: DIQMTQSPSSLSASVGDRVTITCKARQDINKYIAWYQHKPGKGPKLLIHYTSILQPGIPSRFSGSGSGRDYTFTISSLQPEDIATYYCLQYDYFFTFGGGTKVEIK
EC50 (nM): 0.68
//
binder: 290F10G10.p1.Z16 (antibody, V domains shown) VH: EIQLVQSGAEVKKPGASVKVSCKASGYTFTSYWIHWVREAPGQGLEWIGTIYPGDADTRSTQKFKDKATVTADKSTSTVYMELSSLRSEDTAVYYCTRSLIHDDYDKYYFDYWGQGTTVTVSS VL: DIQMTQSPSSLSASVGDRVTITCKARQDINKYIAWYQQKPGKAPKLLIYYTSILQPGVPSRFSGSGSGRDYTFTISSLQPEDIATYYCLQYDYFFTFGGGTKVEIK
EC50 (nM): 0.61
